- Assayed System: Aldo-keto reductase family 1 member B1 (Homo sapiens)
- Protocol: Inhibitory activity against human placental aldose reductase in Sepharose 4B column at day 1
pIC50: −log10 of the molar value.
Readout: pIC50

I. O=C(O)c1ccc2nc3cc(O)ccc3c(=O)n2c1
II. O=c1c(Cl)c(-c2nn[nH]n2)oc2ccccc12
Lab note: record which item had the higher pIC50, I or II . Your answer should be the label attached to the chosen record.
I
(I: 5.30, II: 4.42)

----------
- Assayed System: Aldo-keto reductase family 1 member B1 (Homo sapiens)
- Protocol: Inhibitory activity against human placental aldose reductase in 30 -70% (NH4)2SO4.
Readout: IC50 (µM)

Record excerpt, results attached:
{"Compound": "CC1OC(O)C(O)C(O)C1Oc1c(-c2ccc(O)c(O)c2)oc2cc(O)cc(O)c2c1=O (stereo unspecified)", "Assayed System": "Aldo-keto reductase family 1 member B1 (Homo sapiens)", "Value Unit": "µM", "IC50": 7.1}
{"Compound": "O=c1c(Cl)c(-c2nn[nH]n2)oc2ccccc12", "Assayed System": "Aldo-keto reductase family 1 member B1 (Homo sapiens)", "Value Unit": "µM", "IC50": 4.1}
{"Compound": "O=C(O)CN1C(=O)c2cccc3cccc(c23)C1=O [ALRESTATIN]", "Assayed System": "Aldo-keto reductase family 1 member B1 (Homo sapiens)", "Value Unit": "µM", "IC50": 6.5}

1. O=C(O)C1=CC(=O)C2C=CC(O)=CC2O1 (stereo unspecified)
2. O=C(O)c1ccc2nc3cc(O)ccc3c(=O)n2c1
3. CCOC(=O)C(=O)Nc1cc([N+](=O)[O-])cc(C(=O)O)c1O
Number of compounds to sort: 3. Sort criterion: IC50, ascending. I'd appreciate it if you listed the labels in the requested order.
1, 2, 3
